Source listed as patent US20220259593A1.

Tested on: K562 CRISPRi cells
TEST: Constant region variant library pooled growth screen, K562
Type: cell-based, human
RECORDED_CONDITIONS: sgRNA constant region variants; relative to the original, un-modified constant region cr995; CRISPRi
ATTRIBUTE_MEASURED: Mean relative activity
Reply with the value as a number alone.

Completed entries (count: 3):
| MOLECULE | ATTRIBUTE_MEASURED | OBS_VALUE |
| --- | --- | --- |
| cr459 (nucleic acid, listed as DNA, chemistry not fully specified) guide: GTTTAAGAGCTAAGCTGGAAACAGCATAGCGAGTTTAAATAAGGCTAGTCCGTTATCTACTTGAAAAAGTGGCACCGAGTCGGTGCT | Mean relative activity | 0.3837 |
| cr040 (nucleic acid, listed as DNA, chemistry not fully specified) guide: ATTTACGAGCTAAGCTGGAAACAGCATAGCAAGTTTAAATAAGGCTAGTCCGTTATCAACTTGAAAAAGTGGCACCGAGTCGGTGCT | Mean relative activity | 0.4233 |
| cr895 (nucleic acid, listed as DNA, chemistry not fully specified) guide: GTTTAAGAGCTAAGCTGGAAACAGCATAGCAATTTTAAATAAGGCTAGTCCGTTATCAACTTGTAAAAGTGGCACCGAGTCGGTGCT | Mean relative activity | 0.3709 |

As a next step, examine the molecule that follows.
The molecule cr824 (nucleic acid, listed as DNA, chemistry not fully specified) guide: GTTTAAGAGCTAAGCTGGAAACAGCATAGCAAGTTTAAATAAGGCTAGTCCGTTATCAACTTGACAAAGTGGCACCGAGGCGGTGCT showed Mean relative activity equal to 0.499
